Tested on: Escherichia coli TOP10
Protocol: shrunken log2 fold change of peptide-encoding DNA abundance (4.5 h post-induction vs induction); higher = less antimicrobial activity (less host growth inhibition)
Experimental conditions: time post-induction: 4.5 h; library: site-saturation at positions 5, 18, 19, 20
Observation type: shrunken log2 fold change

System Escherichia coli TOP10. Read-out shrunken log2 fold change. Item RRIRDRPPRLPRPRPRPWAPPRP . Report value. 0.00499

System Escherichia coli TOP10. Read-out shrunken log2 fold change. Item RRIRYRPPRLPRPRPRPCIRPRP . Report value. -0.023

System Escherichia coli TOP10. Read-out shrunken log2 fold change. Item RRIRVRPPRLPRPRPRPCRNPRP . Report value. -0.0211

System Escherichia coli TOP10. Read-out shrunken log2 fold change. Item RRIRGRPPRLPRPRPRPLQLPRP . Report value. 0.447

----------
Tested on: Escherichia coli TOP10
Protocol: shrunken log2 fold change of peptide-encoding DNA abundance (4.5 h post-induction vs induction); higher = less antimicrobial activity (less host growth inhibition)
Experimental conditions: time post-induction: 4.5 h; library: site-saturation at positions 5, 18, 19, 20
Category scheme (shrunken log2 fold change): lower (below -0.1), middle (-0.1 to below 0.08), upper (0.08 or more)

Class (by measured shrunken log2 fold change) for RRIRGRPPRLPRPRPRPASNPRP upper

Class (by measured shrunken log2 fold change) for RRIRFRPPRLPRPRPRPVQYPRP lower

Class (by measured shrunken log2 fold change) for RRIRIRPPRLPRPRPRPIDKPRP lower

Class (by measured shrunken log2 fold change) for RRIRARPPRLPRPRPRPNWIPRP middle

Class (by measured shrunken log2 fold change) for RRIRARPPRLPRPRPRPSHKPRP middle

Class (by measured shrunken log2 fold change) for RRIRRRPPRLPRPRPRPRVCPRP upper

Class (by measured shrunken log2 fold change) for RRIRVRPPRLPRPRPRPCSNPRP lower

Class (by measured shrunken log2 fold change) for RRIRERPPRLPRPRPRPPGPPRP upper

Class (by measured shrunken log2 fold change) for RRIRDRPPRLPRPRPRPELWPRP upper

Class (by measured shrunken log2 fold change) for RRIRTRPPRLPRPRPRPMCKPRP middle

Class (by measured shrunken log2 fold change) for RRIRLRPPRLPRPRPRPQGDPRP middle

Class (by measured shrunken log2 fold change) for RRIRKRPPRLPRPRPRPCIHPRP lower

Class (by measured shrunken log2 fold change) for RRIRCRPPRLPRPRPRPIVMPRP lower

Class (by measured shrunken log2 fold change) for RRIRFRPPRLPRPRPRPMDQPRP lower

Class (by measured shrunken log2 fold change) for RRIRYRPPRLPRPRPRPIVAPRP lower

Class (by measured shrunken log2 fold change) for RRIRCRPPRLPRPRPRPKICPRP middle

Class (by measured shrunken log2 fold change) for RRIRERPPRLPRPRPRPTSWPRP upper

Class (by measured shrunken log2 fold change) for RRIRARPPRLPRPRPRPSGHPRP upper

Class (by measured shrunken log2 fold change) for RRIRARPPRLPRPRPRPDREPRP middle

Class (by measured shrunken log2 fold change) for RRIRPRPPRLPRPRPRPRQFPRP upper

Class (by measured shrunken log2 fold change) for RRIRVRPPRLPRPRPRPWCKPRP middle

----------
Exercise: state measured shrunken log2 fold change for each of the sequences provided.
System: Escherichia coli TOP10
Protocol: shrunken log2 fold change of peptide-encoding DNA abundance (4.5 h post-induction vs induction); higher = less antimicrobial activity (less host growth inhibition)
Experimental conditions: time post-induction: 4.5 h; library: site-saturation at positions 5, 18, 19, 20

Find the measured shrunken log2 fold change of RRIRGRPPRLPRPRPRPPMVPRP and report it. 0.277

Find the measured shrunken log2 fold change of RRIRVRPPRLPRPRPRPRQNPRP and report it. 0.00342

Find the measured shrunken log2 fold change of RRIRARPPRLPRPRPRPFFLPRP and report it. -0.0057

Find the measured shrunken log2 fold change of RRIRGRPPRLPRPRPRPHIDPRP and report it. 0.301

Find the measured shrunken log2 fold change of RRIRERPPRLPRPRPRPNHWPRP and report it. -0.138

Find the measured shrunken log2 fold change of RRIRYRPPRLPRPRPRPGEKPRP and report it. 0.0799

Find the measured shrunken log2 fold change of RRIRERPPRLPRPRPRPMQLPRP and report it. 0.0995

Find the measured shrunken log2 fold change of RRIRTRPPRLPRPRPRPAPVPRP and report it. 0.0626

Find the measured shrunken log2 fold change of RRIRCRPPRLPRPRPRPGRQPRP and report it. 0.285

Find the measured shrunken log2 fold change of RRIRYRPPRLPRPRPRPFHFPRP and report it. -0.19

Find the measured shrunken log2 fold change of RRIRVRPPRLPRPRPRPIAMPRP and report it. -0.0565

----------
Tested on: Escherichia coli TOP10
Protocol: shrunken log2 fold change of peptide-encoding DNA abundance (4.5 h post-induction vs induction); higher = less antimicrobial activity (less host growth inhibition)
Experimental conditions: time post-induction: 4.5 h; library: site-saturation at positions 5, 18, 19, 20
Please enter 1 (yes) where shrunken log2 fold change is greater than or equal to -0.01, and 0 (no) where it is lower.

Does shrunken log2 fold change meet or surpass -0.01 for RRIRIRPPRLPRPRPRPMGVPRP ? 0 (no)

Does shrunken log2 fold change meet or surpass -0.01 for RRIRLRPPRLPRPRPRPNDNPRP ? 0 (no)

Does shrunken log2 fold change meet or surpass -0.01 for RRIRRRPPRLPRPRPRPTYGPRP ? 1 (yes)

Does shrunken log2 fold change meet or surpass -0.01 for RRIRMRPPRLPRPRPRPRCAPRP ? 1 (yes)

Does shrunken log2 fold change meet or surpass -0.01 for RRIRCRPPRLPRPRPRPYCNPRP ? 0 (no)

Does shrunken log2 fold change meet or surpass -0.01 for RRIRKRPPRLPRPRPRPFGFPRP ? 0 (no)

Does shrunken log2 fold change meet or surpass -0.01 for RRIRLRPPRLPRPRPRPDYMPRP ? 0 (no)

Does shrunken log2 fold change meet or surpass -0.01 for RRIRQRPPRLPRPRPRPISMPRP ? 1 (yes)

Does shrunken log2 fold change meet or surpass -0.01 for RRIRMRPPRLPRPRPRPKGTPRP ? 1 (yes)

Does shrunken log2 fold change meet or surpass -0.01 for RRIRWRPPRLPRPRPRPYHAPRP ? 0 (no)

Does shrunken log2 fold change meet or surpass -0.01 for RRIRTRPPRLPRPRPRPSAQPRP ? 1 (yes)

Does shrunken log2 fold change meet or surpass -0.01 for RRIRIRPPRLPRPRPRPGKKPRP ? 1 (yes)

Does shrunken log2 fold change meet or surpass -0.01 for RRIRNRPPRLPRPRPRPRNHPRP ? 0 (no)

Does shrunken log2 fold change meet or surpass -0.01 for RRIRNRPPRLPRPRPRPFIPPRP ? 0 (no)

Does shrunken log2 fold change meet or surpass -0.01 for RRIRRRPPRLPRPRPRPCIRPRP ? 0 (no)

Does shrunken log2 fold change meet or surpass -0.01 for RRIRTRPPRLPRPRPRPEPGPRP ? 1 (yes)

Does shrunken log2 fold change meet or surpass -0.01 for RRIRNRPPRLPRPRPRPGKPPRP ? 0 (no)

----------
System: Escherichia coli TOP10;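 also: peptides expressed intracellularly from a pBAD plasmid library in pooled LB shake-flask culture, induced with 0.3% L-arabinose, DNA abundance read by NGS, three biological replicates, DESeq2 with apeglm shrinkage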
Protocol: shrunken log2 fold change of peptide-encoding DNA abundance (4.5 h post-induction vs induction); higher = less antimicrobial activity (less host growth inhibition)
Experimental conditions: time post-induction: 4.5 h; library: site-saturation at positions 5, 18, 19, 20
Observation type: shrunken log2 fold change
The answer should be a number; do not append a unit.

System Escherichia coli TOP10. Read-out shrunken log2 fold change. Item RRIRMRPPRLPRPRPRPDGSPRP . Report value. 0.107

System Escherichia coli TOP10. Read-out shrunken log2 fold change. Item RRIRFRPPRLPRPRPRPPKRPRP . Report value. 0.467

System Escherichia coli TOP10. Read-out shrunken log2 fold change. Item RRIRPRPPRLPRPRPRPMWCPRP . Report value. -0.0757

System Escherichia coli TOP10. Read-out shrunken log2 fold change. Item RRIRIRPPRLPRPRPRPQGDPRP . Report value. 0.0169

System Escherichia coli TOP10. Read-out shrunken log2 fold change. Item RRIRCRPPRLPRPRPRPMKNPRP . Report value. -0.128

System Escherichia coli TOP10. Read-out shrunken log2 fold change. Item RRIRKRPPRLPRPRPRPWTQPRP . Report value. 0.0628

System Escherichia coli TOP10. Read-out shrunken log2 fold change. Item RRIRKRPPRLPRPRPRPSLRPRP . Report value. -0.278

System Escherichia coli TOP10. Read-out shrunken log2 fold change. Item RRIRQRPPRLPRPRPRPDCCPRP . Report value. -0.0188

System Escherichia coli TOP10. Read-out shrunken log2 fold change. Item RRIRKRPPRLPRPRPRPLYNPRP . Report value. -0.263

System Escherichia coli TOP10. Read-out shrunken log2 fold change. Item RRIRSRPPRLPRPRPRPRNFPRP . Report value. 0.146

System Escherichia coli TOP10. Read-out shrunken log2 fold change. Item RRIRGRPPRLPRPRPRPYGFPRP . Report value. -0.0296

System Escherichia coli TOP10. Read-out shrunken log2 fold change. Item RRIRRRPPRLPRPRPRPCTWPRP . Report value. -0.0877

System Escherichia coli TOP10. Read-out shrunken log2 fold change. Item RRIRQRPPRLPRPRPRPVLSPRP . Report value. -0.0147

System Escherichia coli TOP10. Read-out shrunken log2 fold change. Item RRIRERPPRLPRPRPRPAKHPRP . Report value. -0.107

System Escherichia coli TOP10. Read-out shrunken log2 fold change. Item RRIRQRPPRLPRPRPRPWQVPRP . Report value. -0.154

System Escherichia coli TOP10. Read-out shrunken log2 fold change. Item RRIRDRPPRLPRPRPRPYFPPRP . Report value. -0.944

System Escherichia coli TOP10. Read-out shrunken log2 fold change. Item RRIRERPPRLPRPRPRPAGLPRP . Report value. -0.0519

System Escherichia coli TOP10. Read-out shrunken log2 fold change. Item RRIRDRPPRLPRPRPRPVMQPRP . Report value. 0.023

System Escherichia coli TOP10. Read-out shrunken log2 fold change. Item RRIRHRPPRLPRPRPRPEGWPRP . Report value. 0.695

System Escherichia coli TOP10. Read-out shrunken log2 fold change. Item RRIRQRPPRLPRPRPRPWAFPRP . Report value. -0.000467

System Escherichia coli TOP10. Read-out shrunken log2 fold change. Item RRIRWRPPRLPRPRPRPKHEPRP . Report value. 0.288

System Escherichia coli TOP10. Read-out shrunken log2 fold change. Item RRIRKRPPRLPRPRPRPRWLPRP . Report value. 0.796

System Escherichia coli TOP10. Read-out shrunken log2 fold change. Item RRIRCRPPRLPRPRPRPPKYPRP . Report value. -0.291

System Escherichia coli TOP10. Read-out shrunken log2 fold change. Item RRIRHRPPRLPRPRPRPQRTPRP . Report value. -0.145

System Escherichia coli TOP10. Read-out shrunken log2 fold change. Item RRIRARPPRLPRPRPRPWGLPRP . Report value. 0.617

System Escherichia coli TOP10. Read-out shrunken log2 fold change. Item RRIRARPPRLPRPRPRPKQIPRP . Report value. 0.146

System Escherichia coli TOP10. Read-out shrunken log2 fold change. Item RRIRHRPPRLPRPRPRPKIVPRP . Report value. 0.00911

System Escherichia coli TOP10. Read-out shrunken log2 fold change. Item RRIRRRPPRLPRPRPRPEPPPRP . Report value. 1.02

System Escherichia coli TOP10. Read-out shrunken log2 fold change. Item RRIRDRPPRLPRPRPRPWCDPRP . Report value. 0.211

System Escherichia coli TOP10. Read-out shrunken log2 fold change. Item RRIRPRPPRLPRPRPRPVEMPRP . Report value. 0.0666

System Escherichia coli TOP10. Read-out shrunken log2 fold change. Item RRIRIRPPRLPRPRPRPMCVPRP . Report value. -0.209

System Escherichia coli TOP10. Read-out shrunken log2 fold change. Item RRIRMRPPRLPRPRPRPGVTPRP . Report value. 0.285

System Escherichia coli TOP10. Read-out shrunken log2 fold change. Item RRIRDRPPRLPRPRPRPCLIPRP . Report value. 0.0225

System Escherichia coli TOP10. Read-out shrunken log2 fold change. Item RRIRVRPPRLPRPRPRPSRTPRP . Report value. -0.47

System Escherichia coli TOP10. Read-out shrunken log2 fold change. Item RRIRCRPPRLPRPRPRPECAPRP . Report value. 0.543

System Escherichia coli TOP10. Read-out shrunken log2 fold change. Item RRIRDRPPRLPRPRPRPHKHPRP . Report value. -0.217
